# PROTOCOL NOTES: Influence of novobiocin pretreatment on talazoparib pharmacokinetics in mice
# Format: in vivo
# CONDITION PARAMETERS: female, FVB, mouse, plasma, po, 0.5 mg/kg, AUC, wild-type mice, novobiocin 50 mg/kg p.o. 30 min before talazoparib 0.5 mg/kg p.o., 0-4 h, mean (±SEM), N=5
OBSERVATION TYPE: AUC

Prompt line: Quickly give me recorded AUC for `Cn1ncnc1[C@H]1c2n[nH]c(=O)c3cc(F)cc(c23)N[C@@H]1c1ccc(F)cc1`
Response line: 615 ng·h/mL

----------
# PROTOCOL NOTES: Influence of novobiocin pretreatment on talazoparib pharmacokinetics in mice
# Assay type: in vivo
# CONDITION PARAMETERS: female, FVB, mouse, plasma, po, 0.5 mg/kg, Cmax, ABCB1/ABCG2(−/−) mice, co-treatment none (vehicle), talazoparib 0.5 mg/kg p.o., mean (±SEM), N=5
OBSERVATION TYPE: Cmax (ng/mL)
Provide the reading as a plain figure in ng/mL.

Prompt line: Quickly give me recorded Cmax for Cn1ncnc1[C@H]1c2n[nH]c(=O)c3cc(F)cc(c23)N[C@@H]1c1ccc(F)cc1 [Talazoparib]
Response line: 352

----------
# PROTOCOL NOTES: Influence of novobiocin pretreatment on talazoparib pharmacokinetics in mice
# Format: in vivo
# CONDITION PARAMETERS: female, FVB, mouse, plasma, po, 0.5 mg/kg, AUC, ABCB1/ABCG2(−/−) mice, novobiocin 50 mg/kg p.o. 30 min before talazoparib 0.5 mg/kg p.o., 0-4 h, mean (±SEM), N=5
OBSERVATION TYPE: AUC (ng·h/mL)
Provide the reading as a plain figure in ng·h/mL.

Prompt line: Quickly give me recorded AUC for `Cn1ncnc1[C@H]1c2n[nH]c(=O)c3cc(F)cc(c23)N[C@@H]1c1ccc(F)cc1`
Response line: 890
